# Tested on: NCI-H1944
# TEST NAME: normalised cell viability (NPI; 0 = phenylarsine oxide control, 1 = DMSO control) (fraction of DMSO control); higher = more viable cells (less compound toxicity)
# STUDY CONDITIONS: glucocorticoid arm: vehicle; compound 1 µM; 6 days
Over roughly 1,900 compounds, “normalised cell viability (NPI; 0 = phenylarsine oxide control, 1 = DMSO control)” has its median near 1; the lowest 2% begin near 0.039. For the sample, the lowest values were picked, then their nearest neighbours and some compounds at random.
READOUT TYPE: normalised cell viability
Kindly provide the number alone.

See these solved cases before continuing.
| MOLECULE | normalised cell viability |
| --- | --- |
| Nc1ncn([C@H]2C[C@H](O)[C@@H](CO)O2)c(=O)n1 [5-Aza-2'-deoxycytidine] | 0.581 |
| CN(C)CCCn1cc(C2=C(c3c[nH]c4ccccc34)C(=O)NC2=O)c2ccccc21 | 1.03 |
| CCc1ccc(OCc2ccccc2C(=O)Nc2ccc3nc(C)cc(N)c3c2)cc1 | 1.02 |
| COc1cc(=O)n(C)c2c(OCC(O)C(C)(C)O)cccc12 (stereo not drawn) [Foliosidine] | 0.998 |
| Cc1ncc(-c2ccnc(Nc3ccc(S(C)(=O)=O)cc3)n2)n1C(C)C | 0.191 |
| C[C@@H]1C(=O)O[C@H]2C[C@@]34[C@H]5C[C@@H](C(C)(C)C)[C@]36[C@@H](OC(=O)[C@@H]6O)O[C@@]4(C(=O)O5)[C@]21O [Ginkgolide A] | 1 |
| O=S(=O)(NCCNCC=Cc1ccc(Br)cc1)c1cccc2cnccc12 | 1 |
| Nc1nc(Cl)nc2c1ncn2[C@@H]1O[C@H](CO)[C@@H](O)[C@H]1O [2-Chloroadenosine] | 0.985 |
| CCCCN(Cc1ccc(C(=O)NO)cc1)C(=O)Nc1ccccc1 [Nexturastat A] | 1 |
| Nc1nc(Cl)nc2c1ncn2[C@H]1C[C@H](O)[C@@H](CO)O1 [Cladribine] | 0.0131 |

Challenge: I would be grateful if you could share the reported normalised cell viability for O=c1[nH]cc(F)c(=O)[nH]1 [5-Fluorouracil; Fluorouracil] .
Response given: 0.971

Challenge: And the next one, CSC(=N)NCCC[C@H](N)C(=O)O [S-Methyl-L-thiocitrulline acetate] ?
Response given: 0.985

Challenge: Then what about the molecule O=Nc1ccc2oc(=O)ccc2c1 [6-Nitroso-1,2-benzopyrone] ?
Response given: 1.01

Challenge: Can you check CCN(CC)CCCC(C)Nc1nc(C)cc(Nc2ccc3nc(C)cc(N)c3c2)n1 (stereo not drawn) next?
Response given: 1

Challenge: Next up: Nc1nc(Cl)nc2c1ncn2[C@@H]1O[C@H](CO)[C@@H](O)[C@@H]1F [Clofarabine]
Response given: 0.0363

Challenge: Moving on to the next molecule: Cl.N[C@@H](CCC(=O)O)C(=O)O [L-Glutamic acid hydrochloride]
Response given: 1.02

Challenge: What would you report for Nc1ncnc2c1nc(Br)n2C1OC2COP(=O)(O)O[C@@H]2C1O (stereo partly drawn) [8-Bromo-cAMP sodium] ?
Response given: 0.962

Challenge: And then CC(C)[C@H](C(=O)Nc1ccc(C(=O)NO)cc1)c1ccccc1 , what is it?
Response given: 0.172

---

# Test system: NCI-H1944;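 note: CTB read-out in 384-well plates, triplicate wells, NPI normalised per plate against 1 µM phenylarsine oxide (0) and 0.1% DMSO (1) controls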
# TEST NAME: normalised cell viability (NPI; 0 = phenylarsine oxide control, 1 = DMSO control) (fraction of DMSO control); NCI-H1944 is a non-small cell lung cancer line; higher = more viable cells (less compound toxicity)
# STUDY CONDITIONS: glucocorticoid arm: hydrocortisone 2.75 uM co-treatment; compound 1 µM; 6 days
In all, about 1,900 compounds were measured (“normalised cell viability (NPI; 0 = phenylarsine oxide control, 1 = DMSO control)”: median about 1, lowest 2% from about 0.039 on). This excerpt belongs to a sample that is enriched for the lowest values.
READOUT TYPE: normalised cell viability
Lab note: record just the number, no unit beside it.

| MOLECULE | RESULT VALUE |
| --- | --- |
| CCCCCCCCCCCCCCCc1cccc(O)c1C(=O)O | 1 |

Challenge: What measured normalised cell viability goes with CCCCCCCCCCCCCCCC(=O)NCC(COP(=O)([O-])OCC[N+](C)(C)C)OCC (racemic) ?
Response given: 1.01

Challenge: Check NS(=O)(=O)c1cc(C(=O)O)c(NCc2ccco2)cc1Cl [Furosemide] too.
Response given: 1

Challenge: Cool, now CC[C@@H]1C(=O)N(C)c2cnc(Nc3ccc(C(=O)NC4CCN(C)CC4)cc3OC)nc2N1C1CCCC1
Response given: 0.535

Challenge: And what about the molecule O=C(O)C1CCCNC1 (racemic) [(±)-Nipecotic acid] ?
Response given: 0.995

Challenge: What do we get for COc1cc(C(=O)NC2CCN(C)CC2)ccc1Nc1ncc2c(n1)N(C1CCCC1)CC(F)(F)C(=O)N2C ?
Response given: 0.354

Challenge: Also, COc1[nH]c2ccc(F)cc2c1C(=O)OCC1CCN(CCNS(C)(=O)=O)CC1.NS(=O)(=O)O please.
Response given: 1.02

Challenge: Thanks! And COc1cc(CC(=O)O)ccc1O [4-Hydroxy-3-methoxyphenylacetic acid] ?
Response given: 1.01
